Test system: Fibroblast
Test: Incucyte cell viability with human fibroblast; further: unitless GR value; below 1 slowed growth and below 0 cell loss
Format: toxicity, cell-based
Conditions: 18 h, 10 µM, compound concentration 10 uM, replicate number 2, timepoint 18 hours
Category key, based on recorded Growth Rate: low bin = under 0.4, mid bin = from 0.4 up to 0.8, high bin = 0.8 and over

{"COMPOUND": "CCCCC/C=C\\C/C=C\\C/C=C\\C/C=C\\CCCC(=O)NCC(=O)O", "LABEL": "high bin"}
{"COMPOUND": "CC(C)(C)c1cc(NC(=O)Nc2ccc(-c3cn4c(n3)sc3cc(OCCN5CCOCC5)ccc34)cc2)no1", "LABEL": "high bin"}
{"COMPOUND": "Cn1cc(-c2ccc3occ(-c4cccc(-c5ccncc5)c4)c3n2)cn1", "LABEL": "low bin"}
{"COMPOUND": "CCCCCCCCc1ccc(CCC(N)(CO)CO)cc1", "LABEL": "low bin"}
{"COMPOUND": "Cl.O=C(O)c1cc(-c2ccc(C3CCNCC3)cc2)c2ccc(-c3ccc(C(F)(F)F)cc3)cc2c1", "LABEL": "mid bin"}
{"COMPOUND": "CC(C)(C)c1ccc(CSc2cnn(C(C)(C)C)c(=O)c2Cl)cc1", "LABEL": "mid bin"}
{"COMPOUND": "O=C(CCCc1ccccc1)Nc1nc2ccccc2c(=O)s1", "LABEL": "low bin"}
{"COMPOUND": "Cc1sc2c(c1C)C(c1ccc(Cl)cc1)=N[C@@H](CC(=O)NCCCCCCCCNC(=O)COc1cccc3c1C(=O)N(C1CCC(=O)NC1=O)C3=O)c1nnc(C)n1-2 (some centres undefined)", "LABEL": "low bin"}
{"COMPOUND": "Cc1ccccc1C#Cc1ccc(CCC(=O)O)cc1", "LABEL": "low bin"}
{"COMPOUND": "CN(C)C(=O)Cn1cc(-c2ccc(-c3nnc4ccccn34)cc2)cn1", "LABEL": "high bin"}
{"COMPOUND": "OCCCNc1cc(-c2ccnc(Nc3cccc(Cl)c3)n2)ccn1", "LABEL": "low bin"}
{"COMPOUND": "O=C(Nc1cc(-c2ccccc2)nn1-c1ccccc1F)c1ccc([N+](=O)[O-])cc1", "LABEL": "high bin"}
{"COMPOUND": "Cc1ccc(F)cc1C(=O)Nc1ccc(C(=O)N2Cc3cccn3Cc3ccccc32)c(Cl)c1", "LABEL": "mid bin"}
{"COMPOUND": "CCCCNNC(=O)c1ccc(Br)cc1", "LABEL": "high bin"}
{"COMPOUND": "Cn1cnc(-c2cc3nccc(Oc4ccc(NC(=S)NC(=O)Cc5ccccc5)cc4F)c3s2)c1", "LABEL": "mid bin"}
{"COMPOUND": "CN[C@@H]1C[C@H]2O[C@@](C)([C@@H]1OC)n1c3ccccc3c3c4c(c5c6ccccc6n2c5c31)C(=O)NC4", "LABEL": "mid bin"}
{"COMPOUND": "CCC(=O)NC[C@@H]1C[C@H]1c1cccc2c1CCO2", "LABEL": "mid bin"}
{"COMPOUND": "CN(C)CCCc1cc(C(=O)Nc2ccc(-c3ccncc3)cc2)ccc1O.Cl.Cl", "LABEL": "mid bin"}

The reported measurements were obtained from ChEMBL document CHEMBL5058564.
